- target entity: T1, human G-protein-coupled receptor family C group 5 member D (GPRC5D) (human, UniProt Q9NZD1 1-345)
- T1 construct: whole, on cells; also called human GPRC5D protein
- T1 sequence (Q9NZD1 whole entry): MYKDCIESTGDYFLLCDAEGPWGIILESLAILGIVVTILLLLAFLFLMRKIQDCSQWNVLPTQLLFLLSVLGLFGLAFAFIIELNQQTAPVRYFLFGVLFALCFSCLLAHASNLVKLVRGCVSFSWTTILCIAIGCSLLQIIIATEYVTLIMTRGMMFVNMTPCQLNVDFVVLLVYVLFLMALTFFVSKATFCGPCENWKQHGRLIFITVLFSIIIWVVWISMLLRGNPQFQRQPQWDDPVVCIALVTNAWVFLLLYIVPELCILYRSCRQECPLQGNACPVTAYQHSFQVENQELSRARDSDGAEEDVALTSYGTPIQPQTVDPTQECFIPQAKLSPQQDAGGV
- run description: FACS, CHO-K1/human GPRC5D, hybridoma supernatant
- Method: Antibodies harvested from the supernatants of the hybridomas were tested for their binding to the human GPRC5D protein expressed on CHO K1 cells was tested. CHO—K1 cells stably expressed human GPRC5D, were harvested from flasks. 100 µl of 1×10^6 cells/ml of cells were incubated with murine antibodies in 3-fold serial dilutions for 30 minutes on ice. […] Cells were washed with 200 µl of FACS buffer twice and transferred to BD Falcon 5 ml tube and analyzed by FACS.
measured attribute: LogEC50
In your answer, state the number alone without any accompanying words.

Exercise: For the binder 34D4A10 (antibody, V domains shown, murine antibody from hybridoma supernatant) VH: QVQLQQSGAELVRPGTSVKVSCKASGYAFISYLIEWIKQRPGQGLEWIGMINPGSGGTNYNEKFKDKATLTADKSSSTAYMQLSSLTSDDSAVYFCARNWDVWGQGTTLTVSS VL: DVVMTQSPLSLPVSLGDQASVSCRSSQSLVHSTGNTYLHWYLQKPGQSPKLLIYKVSNRFSGVPDRFSGSGSGTDFTLKISRVEAEDLGVYFCSQSTHVPWTFGGGTKLEIK , what LogEC50 is on record?
Solution: 1.02
